// reported Fold loss potency relative to WT bFGF21, Elk1 luciferase reporter assay per item
target: beta Klotho and FGFR1c (Fibroblast Growth Factor Receptor isoform 1c) expressed on the cell surface of a proprietary stable cell line (HEK293); experiment: cell-based or functional assay
[ ]: non-standard residue; d: D form. Phe(4-Ac) = CC(=O)c1ccc(C[C@H](N)C(=O)O)cc1
Please respond with the number in fold and leave the unit unwritten.

[
  {
    "binder": "bFGF-21-Q108-30KPEG (ligand) HPIPDSSPLLQFGGQVRQRYLYTDDAQETEAHLEIRADGTVVGAARQSPESLLELKALKPGVIQILGVKTSRFLCQGPDGKLYGSLHFDPKACSFRELLLEDGYNVY[Phe(4-Ac)](PEG 30 kDa)SETLGLPLRLPPQRSSNRDPAPRGPARFLPLPGLPAAPPDPPGILAPEPPDVGSSDPLSMVGPSYGRSPSYTS",
    "measured": 4
  }
]

State the recorded Fold loss potency relative to WT bFGF21, Elk1 luciferase reporter assay for this entry: bFGF-21-R131-30KPEG (ligand, not fully specified; also: PEG: linear aminooxy-PEG) HPIPDSSPLLQFGGQVRQRYLYTDDAQETEAHLEIRADGTVVGAARQSPESLLELKALKPGVIQILGVKTSRFLCQGPDGKLYGSLHFDPKACSFRELLLEDGYNVYQSETLGLPLRLPPQRSSNRDPAP[Phe(4-Ac)](PEG 30 kDa)GPARFLPLPGLPAAPPDPPGILAPEPPDVGSSDPLSMVEPSYGRSPSYTS
14

State the recorded Fold loss potency relative to WT bFGF21, Elk1 luciferase reporter assay for this entry: bFGF-21-K91-30KPEG (ligand, not fully specified; also: PEG: linear aminooxy-PEG) HPIPDSSPLLQFGGQVRQRYLYTDDAQETEAHLEIRADGTVVGAARQSPESLLELKALKPGVIQILGVKTSRFLCQGPDGKLYGSLHFDP[Phe(4-Ac)](PEG 30 kDa)ACSFRELLLEDGYNVYQSETLGLPLRLPPQRSSNRDPAPRGPARFLPLPGLPAAPPDPPGILAPEPPDVGSSDPLSMVEPSYGRSPSYTS
14

State the recorded Fold loss potency relative to WT bFGF21, Elk1 luciferase reporter assay for this entry: bFGF-21-G77-30KPEG (ligand, not fully specified; also: PEG: linear aminooxy-PEG) HPIPDSSPLLQFGGQVRQRYLYTDDAQETEAHLEIRADGTVVGAARQSPESLLELKALKPGVIQILGVKTSRFLCQ[Phe(4-Ac)](PEG 30 kDa)PDGKLYGSLHFDPKACSFRELLLEDGYNVYQSETLGLPLRLPPQRSSNRDPAPRGPARFLPLPGLPAAPPDPPGILAPEPPDVGSSDPLSMVEPSYGRSPSYTS
9

Values were extracted from patent US20190201491A1.
